- System: NDR1
- Construct: gene STK38
- Condition notes: concentration: 1 μM,replicates: in singlicate; n = 1;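 further: KINOMEscan kinase panel screen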
Overview of recorded %Inh for various compounds
Number only, in %; omit the unit.

The compound CCN(CC)CCOc1ccc(Nc2ncc3cc(-c4c(Cl)cccc4Cl)c(=O)n(C)c3n2)cc1 [SB-601273] showed %Inh equal to 32

Reported %Inh of Cl.Cl.NC[C@H](CC1CCCCC1)NC(=O)c1cc(Br)c(-c2ccnc3[nH]ccc23)s1 [GSK1581427] : 95.1

###

- System: PIP5K2C
- Construct: gene PIP4K2C
- Condition notes: concentration: 1 μM,replicates: in singlicate; n = 1
Reported %Inh values for the following molecules.
Quick reminder: number only, in %, skip the unit.

Cc1ccc2c(-c3ccncc3)c(-c3ccc(F)cc3)nn2c1.Cl
10
C[C@@H](Oc1cc(-c2cnn(C3CCNCC3)c2)cnc1N)c1c(Cl)ccc(F)c1Cl
0

%Inh reading for `C[C@H]1Oc2cc(cnc2N)-c2c(nn(C)c2C#N)CN(C)C(=O)c2ccc(F)cc21` : 0

`Cc1ccc(-n2nc(C(C)(C)C)cc2NC(=O)Nc2ccc(OCCN3CCOCC3)c3ccccc23)cc1` yielded %Inh of 19

The molecule listed as `Cc1cc2cn[nH]c2cc1-c1cccc2c(N)c(C(N)=O)nnc12` has a reported %Inh of 10

###

- Tested on: RIPK1
- Condition notes: concentration: 1 μM,replicates: in singlicate; n = 1
# key: entry, value: %Inh
Value expressed in %; do not type the unit.

Some molecules with recorded %Inh:
Cc1ccc2c(-c3ccncc3)c(-c3ccc(F)cc3)nn2c1.Cl [GW461484]
0
CCn1c(-c2nonc2N)nc2c(C#CC(C)(C)O)nc(OCCN)cc21.Cl.Cl [GSK902056]
0
C[C@@H]1CCN(C(=O)CC#N)C[C@@H]1N(C)c1ncnc2[nH]ccc12
0
Cl.Cl.Nc1nc(-c2ccc3c(N)n[nH]c3c2)cc(N2CCCC(NC(=O)c3ccccc3)C2)n1 (centres unmarked) [GSK2286775]
4

We now examine a further molecule.
Consider Cl.Cl.NC[C@H](CC1CCCCC1)NC(=O)c1cc(Br)c(-c2ccnc3[nH]ccc23)s1 [GSK1581427] . Its measured %Inh is 0

###

- System: MARK4
- Condition notes: concentration: 1 μM,replicates: in singlicate; n = 1
Listed here: items and their measured %Inh.
Respond with the bare value in %.

Answered cases to consult:
C[C@@H]1CCN(C(=O)CC#N)C[C@@H]1N(C)c1ncnc2[nH]ccc12
0
Cl.Cl.NC[C@H](Cc1ccc(C(F)(F)F)cc1)NC(=O)c1cc(Br)c(-c2ccnc3[nH]ccc23)s1
0

`C[C@H]1Oc2cc(cnc2N)-c2c(nn(C)c2C#N)CN(C)C(=O)c2ccc(F)cc21` tested on MARK4 gave %Inh: 6

# `CC(C)Nc1cc(-c2ccc3c(N)n[nH]c3c2)nc(N)n1` with MARK4: %Inh is 0

Given the molecule `Cc1occc1-c1nc(N)c(OC[C@@H](N)Cc2c[nH]c3ccccc23)cc1-c1cc2c(C)n[nH]c2cn1` and test system MARK4, the measured %Inh is 57

# `Nc1nc(Nc2ccccc2)cc(-c2ccc3c(N)n[nH]c3c2)n1` with MARK4: %Inh is 8

Short answer on MARK4 for `Cc1n[nH]c2ccc(-c3cc(OC[C@@H](N)Cc4ccccc4)cnc3-c3ccoc3)cc12.O=C(O)C(F)(F)F.O=C(O)C(F)(F)F` , %Inh: 0

The measured %Inh that `O=C(NCCNc1ccnc(NCc2ccc(F)cc2)n1)c1cc2ccccc2s1` showed for MARK4 is 0
